- TARGET_SYSTEM: gelatinase A (Homo sapiens)
- Construct: endogenous in cells
- Sequence (P08253 110-660): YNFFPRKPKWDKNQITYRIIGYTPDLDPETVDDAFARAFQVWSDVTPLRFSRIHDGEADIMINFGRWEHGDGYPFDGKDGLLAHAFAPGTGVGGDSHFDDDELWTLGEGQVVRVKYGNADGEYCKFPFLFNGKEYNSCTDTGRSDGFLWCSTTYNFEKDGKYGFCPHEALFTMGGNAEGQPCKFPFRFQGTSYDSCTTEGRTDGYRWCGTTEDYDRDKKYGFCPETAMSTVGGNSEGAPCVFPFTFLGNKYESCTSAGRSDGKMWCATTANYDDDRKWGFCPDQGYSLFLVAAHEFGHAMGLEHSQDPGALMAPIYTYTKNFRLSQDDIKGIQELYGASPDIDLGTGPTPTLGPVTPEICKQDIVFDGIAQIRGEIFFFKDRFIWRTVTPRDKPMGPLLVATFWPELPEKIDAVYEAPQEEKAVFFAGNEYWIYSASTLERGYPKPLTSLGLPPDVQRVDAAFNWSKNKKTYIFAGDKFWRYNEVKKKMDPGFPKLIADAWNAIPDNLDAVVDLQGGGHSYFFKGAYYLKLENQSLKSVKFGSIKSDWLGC
- ASSAY_COMMENT: Inhibitory activity against gelatinase A
- TEST_SETTINGS: progelatinase A from human normal skin dermal fibroblasts (HNDF), activated with APMA; substrate MOCAc-Pro-Leu-Gly-A2pr(Dnp)-Ala-Arg-NH2; 37 °C, 20 minutes; fluorescence Ex 328 nm, Em 393 nm
pIC50: −log10 of the molar value. Structures can show the parent of a compound that is named as a salt.
Outcome: TRUE for pIC50 of at least 9; FALSE for anything lower.

COMPOUND: Cc1ccc(C#Cc2ccc(S(=O)(=O)N[C@H](Cc3c[nH]c4ccccc34)C(=O)O)cc2)cc1
CAT: FALSE

COMPOUND: O=C(O)[C@@H](Cc1c[nH]c2ccccc12)NS(=O)(=O)c1ccc(C#Cc2ccc(-n3ccnc3)cc2)cc1
CAT: FALSE

COMPOUND: Cc1ccc(C#Cc2ccc(S(=O)(=O)N(C)[C@H](C)C(=O)NO)cc2)cc1
CAT: FALSE

COMPOUND: C[C@H](C(=O)NO)N(C)S(=O)(=O)c1ccc(C#Cc2ccc(-n3ccnc3)cc2)cc1 [Example 10(3), hydrochloride]
CAT: TRUE

COMPOUND: CN(CCc1ccccc1)C(=O)CC[C@@H](NS(=O)(=O)c1ccc(C#Cc2ccc(-n3ccnc3)cc2)cc1)C(=O)O
CAT: FALSE

COMPOUND: CCCCCC#Cc1ccc(S(=O)(=O)N[C@H](C)C(=O)NO)cc1
CAT: FALSE

COMPOUND: Cc1ccc(/C=C/c2ccc(S(=O)(=O)N[C@H](C)C(=O)NO)cc2)cc1
CAT: TRUE

COMPOUND: Cc1ccc(C=Cc2ccc(S(=O)(=O)N[C@H](C)C(=O)O)cc2)cc1 (stereo in doubt)
CAT: FALSE

COMPOUND: Cc1ccc(C#Cc2ccc(S(=O)(=O)N[C@H](C)C(=O)O)cc2)cc1
CAT: FALSE
